Reference source for all entries: PubChem BioAssay (NCI)

protocol.notes: NCI Yeast Anticancer Drug Screen. Data for the bub3 strain (AID 167)
run.conditions: S. cerevisiae bub3 mutant strain, hits give high values; at 50.0 µM unless noted
About 79,000 compounds went through this panel and 15% of them were active in at least one assay; those are over-represented in the sample as a whole.
endpoint: growth inhibition (%)

• CC(C)COC(=O)/C=C/c1ccccc1 = 2.9
• O=Nc1c(O)c2ccccc2[nH]c1=O = 57.5
• CC(=O)Oc1ccc2c(c1)[nH]c1c3ccc(OC(C)=O)cc3oc(=O)c21 = -2.85
• O=C(O)CCC(=O)c1ccc(F)cc1 = -22.6
• CSc1ccc(C2NC(=O)NC2=O)cc1 (stereo unspecified) = 4.95
• CNc1ccccc1C(=O)NCCCN = 18.8

---

protocol.notes: NCI Yeast Anticancer Drug Screen. Data for the rad50 strain (AID 155);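 note: 0% = growth of vehicle-only cultures of the same strain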
run.conditions: S. cerevisiae rad50 strain growth inhibition, hits give high values; at 50.0 µM unless noted
Procedure: Growth inhibition of yeast strains with defined genetic alterations is measured as a screen for potential anti-cancer activity. Selected strains with alterations in DNA damage repair or cell cycle control were exposed to compounds and growth inhibition was measured relative to vehicle treated controls. The strain used in this assay is rad50
About 79,000 compounds went through this panel and 15% of them were active in at least one assay; those are over-represented in the sample as a whole.
endpoint: growth inhibition (%)

* CCCCCN=C(N)C(N)=NCCCCC | 47.8
* CCOC(=O)/C(C#N)=C/c1cccc([N+](=O)[O-])c1 | 4.9
* Cc1ccc(S(=O)(=O)C2OC(CO)C(O)C(O)C2O)cc1 (stereo not drawn) | -11.5
* C/C=C/Cc1n[nH]c(=O)c2c(C)[nH]nc12 | -13
* NC(C(=O)O)c1ccc(CBr)cc1 (stereo not drawn) | 9.5
* COc1ccc(NC(=O)CC/C(CC(=O)c2ccco2)=N/NC(=O)C(N)=O)cc1 | -4
* CCC(C)C/C(C)=N/Nc1ccc([N+](=O)[O-])cc1[N+](=O)[O-] (stereo not drawn) | -0.4
* C=C(C)C(=NC(C)(C)C)Nc1ccc(C(=O)OCC)cc1 | -8.3

---

Parameter growth inhibition: see the listing below.
protocol.notes: NCI Yeast Anticancer Drug Screen. Data for the bub3 strain (AID 167)
run.conditions: S. cerevisiae bub3 mutant strain, hits give high values; at 50.0 µM unless noted
The panel holds about 79,000 compounds, 15% with a hit somewhere; the sample as a whole holds those more often.
endpoint: growth inhibition (%)

- CC1(C)OC(=O)C(Cc2ccccc2)(Cc2ccccc2)C(=O)O1: -17.1
- O=CNNc1nn2cnnc2c2ccccc12: -16.6
- O=C(OCC(OC(=O)c1ccccc1)C1OCOC2COCOC21)c1ccccc1 (stereo unspecified): 0.45
- N/N=C1\CC2C3CC4(OCCO4)C4C3CC2C14 (stereo unspecified): -7.6
- Cc1nc(N)c(N)c(=O)[nH]1: -9.6
- CN(C)C(CCC(=O)NC(C)(C)C)CC(=O)NC(C)(C)C (stereo unspecified): 6.95
- Cc1cc2nc3c(=O)[nH]c(=O)nc-3n(C/C=N/NC(N)=S)c2cc1C: -12.8
- N#C/C(=C/n1c(=S)[nH]c2ccccc21)C(N)=O: -7.25
- Nc1ccc(S(=O)(=O)CCS(=O)(=O)c2ccc(N)cc2)cc1: 4.45
- CC(=O)c1cccc(NC(=O)Oc2ccc(-c3ccccc3)cc2Cl)c1: 99.5
- CCCCCCCCCC=O: 23.7

---

Parameter growth inhibition: see the listing below.
protocol.notes: NCI Yeast Anticancer Drug Screen. Data for the mec2-1 strain (AID 157)
run.conditions: S. cerevisiae mec2-1 strain, hits give high values; at 50.0 µM unless noted
Method: Growth inhibition of yeast strains with defined genetic alterations is measured as a screen for potential anti-cancer activity. Selected strains with alterations in DNA damage repair or cell cycle control were exposed to compounds and growth inhibition was measured relative to vehicle treated controls. The strain used in this assay is mec2-1
About 79,000 compounds went through this panel and 15% of them were active in at least one assay; those are over-represented in the sample as a whole. The source made the active and inactive calls. No stated cut-off is given here; in the data, active means growth inhibition above about 70%; inactive means the rest.
endpoint: growth inhibition

• O=c1[nH]c(=O)n(C2OC(CO)C(O)C2Br)cc1Br (configuration not stated) = -3.3% (inactive)
• CCC1=C(c2ccc(OC)cc2)CC[C@@]2(CCNC2=O)[C@@H]1C = -0.2% (inactive)
• COc1ccc2[nH]c3c(C)c4c(c(C)c3c2c1)CN(C)C=C4 = 48.2% (inactive)
• COc1cccc(C)c1O = -7.35% (inactive)
• O=[N+]([O-])c1ccc[nH]c1=S = -15.8% (inactive)
• Nc1ccccc1[N+](=O)[O-] = -3.45% (inactive)
• O=C(O)C(c1ccccc1)N1C(=O)C(Cl)=C(Cl)C1=O (configuration not stated) = -6.35% (inactive)
• CC(C)NC(=O)OCc1c(COC(=O)NC(C)C)c2n(c1Br)CCC2 = 26.1% (inactive)
• CCC[N+](C)(C)CCC#N = 10.9% (inactive)
• COC(=O)[C@@H]1O[C@H]1c1ccccn1 = 1.1% (inactive)
• S=c1nc2ccccn2c(=S)n1-c1ccccn1 = 23.9% (inactive)
• O=C1/C(=C/c2cccc(Cl)c2)CCCc2ccccc21 = 13.8% (inactive)
• CN1C(=O)n2c(nc3ccccc32)C(Cl)(Cl)C1=O = 10.3% (inactive)
• CCn1c(CCCc2nc3c([nH]2)c(=O)n(C)c(=O)n3C)nc2c1c(=O)n(C)c(=O)n2C = -38.8% (inactive)
• O=C1C(=O)c2ccccc2C(O)=C1C1CCCCC1 = 2.15% (inactive)
• CSc1ccc(C2NC(=O)NC2=O)cc1 (configuration not stated) = -14.6% (inactive)
• Nc1sc(=S)[nH]c1-c1ccccc1 = 10.7% (inactive)
• CC[N+](CC)(CC)CCOC(=O)c1cc(OC)c(OC)c(OC)c1 = -20.4% (inactive)
• CCOC(=O)C(F)C(=O)OCC = -2.95% (inactive)
• CC(CO)Cc1ccccc1 (configuration not stated) = -12.8% (inactive)
• Nc1c(F)cc(I)cc1F = 2.15% (inactive)
• CC1=Nc2ccccc2S/C1=C(/C)NNS(=O)(=O)c1ccc(C)cc1 = -0.05% (inactive)

---

protocol.notes: NCI Yeast Anticancer Drug Screen. Data for the sgs1 mgt1 strain (AID 161);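 note: 0% = growth of cultures given vehicle only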
run.conditions: S. cerevisiae sgs1 mgt1 strain, hits give high values; at 50.0 µM unless noted
This is part of a sample that, as a whole, favours compounds with a hit. Of some 79,000 tested, about 15% had one in any assay.
endpoint: growth inhibition (%)

- COc1ccc(C2=C(N)c3ncccc3C2=O)cc1: 7.4
- COC(=O)/C=C(\C(=O)OC)N1CCCCC1: -6.55
- CCC(=O)CC(=O)CCC(=O)Nc1ccc(Cl)cc1C: -11.6
- C=CCCC(CCC=C)(C(=O)O)C(=O)O: -16.7
- CC(N)C(=O)NO (centres undefined): -16.2
- OCCCCC1CCCc2ccccc21 (centres undefined): 3.15
- O=P(O)(O)c1ccc(-c2ccc(I)cc2)cc1: 7.45
- Nc1cccc(B(O)O)c1: -34.3
- CC(C(=O)O)N1C(=O)CNC1=O (centres undefined): 1.15
- CC(=O)Nc1cc(Cl)ccc1[N+](=O)[O-]: 27.9
- O=[n+]1c2c(n([O-])c3ccccc31)CCCCCCCCCC2: 7.15
- CN(C)c1ccc(O[Si](Oc2ccc(N(C)C)cc2)(Oc2ccc(N(C)C)cc2)Oc2ccc(N(C)C)cc2)cc1: 25.8
- CCN(CC)CCN(CC)C(=S)Nc1ccccc1: 23.2
- COc1cc2cnc3c4cc(OCc5ccccc5)ccc4ccc3c2cc1OC: -1
- CC(=O)c1ccc([N+](=O)[O-])[nH]1: -32.9
- N=C(N)SCc1ccc(Oc2ccc(CSC(=N)N)cc2)cc1: -4.5
- CN(C(=O)c1cccc([N+](=O)[O-])c1)C1CCCCC1: 32.6
- COC(=O)C1(CC(=O)c2c(C)[nH]c3ccccc23)NC(=S)NC(=O)C1C#N (centres undefined): -21.1
- c1cncc(C2N3CCCCC3[C@@H]3c4[nH]c5ccccc5c4CCN23)c1 (some centres undefined): -22.8
- CCCSc1nn2cc(NC(=O)OC)nc2s1: -3.75
- O=C1CCCNC(=O)N1: -19.3
- N#Cc1sc2c(c1OC(=O)c1cccs1)c(=O)n(-c1ccccc1)c(=S)n2-c1ccccc1: 17.2
- O=c1c2cc3c(=O)n4c(cc(-c5ccccc5)c5cc(Cl)ccc54)nc3cc2nc2cc(-c3ccccc3)c3cc(Cl)ccc3n12: 18.9
- C=C1CC(C2OCOC3COCOC32)OC1=O (centres undefined): -14.8
- CCOC(=C\C(=O)NC)/C=C/c1ccc([N+](=O)[O-])cc1: -6.1
- Cc1ccc(NC(=O)c2c(Br)c(Br)c(Br)c(Br)c2C(=O)O)cc1Cl: -8.6
- CCOC(=O)c1nc2ccccc2c(=O)[nH]1: 1.5
- CCOC(=O)N1C(=O)C2C3C=CC(C2C1=O)C1C2C(=O)N(C(=O)OCC)C(=O)C2C31 (centres undefined): -37.4
- Cc1cc(C)c(CC(=O)c2ccccc2)c(C)c1: -1.9
- COC(=O)CCC1(C)C2CCC1(C)/C(=N/O)C2 (centres undefined): 2.35
- CN=Nc1c(O)[nH]c2ccc(C)cc12: -8.3
- CC(=O)NS(=O)(=O)c1ccc(NC(=O)/C=C/C(=O)O)cc1: -0.45
- CCCCNC(=O)c1cc(=O)[nH]c(=O)[nH]1: 6.6
- CCc1cc(C(=O)OC/C(C)=N/O)c2ccccc2n1: -10.1
- Cc1ccc(S(=O)(=O)C2OC(CO)C(O)C(O)C2O)cc1 (centres undefined): -5.55
- Cc1ccc(S(=O)(=O)NNC(=O)CCn2[nH]c(=O)c(Cl)c(Cl)c2=O)cc1: -8.1
- O=C(c1ccccc1)c1ccc2c(Cl)ccc3c2c1CC3: -9.75
- CCOC(=O)C(c1ccc2c(c1)OCO2)C1(NC(=O)c2ccccc2)C(=O)C(C(=O)OC)C(=O)C1C(=O)OC (centres undefined): -6.7
- O=C(Nc1ccc(O)cc1)c1ccc([N+](=O)[O-])cc1: 3.35
